# experimentalTarget: mouse TRPM3α2 (mTRPM3) ion channel (Mus musculus)
# Sequence (J9SQF3 1-1709 isoform J9SQF3-12): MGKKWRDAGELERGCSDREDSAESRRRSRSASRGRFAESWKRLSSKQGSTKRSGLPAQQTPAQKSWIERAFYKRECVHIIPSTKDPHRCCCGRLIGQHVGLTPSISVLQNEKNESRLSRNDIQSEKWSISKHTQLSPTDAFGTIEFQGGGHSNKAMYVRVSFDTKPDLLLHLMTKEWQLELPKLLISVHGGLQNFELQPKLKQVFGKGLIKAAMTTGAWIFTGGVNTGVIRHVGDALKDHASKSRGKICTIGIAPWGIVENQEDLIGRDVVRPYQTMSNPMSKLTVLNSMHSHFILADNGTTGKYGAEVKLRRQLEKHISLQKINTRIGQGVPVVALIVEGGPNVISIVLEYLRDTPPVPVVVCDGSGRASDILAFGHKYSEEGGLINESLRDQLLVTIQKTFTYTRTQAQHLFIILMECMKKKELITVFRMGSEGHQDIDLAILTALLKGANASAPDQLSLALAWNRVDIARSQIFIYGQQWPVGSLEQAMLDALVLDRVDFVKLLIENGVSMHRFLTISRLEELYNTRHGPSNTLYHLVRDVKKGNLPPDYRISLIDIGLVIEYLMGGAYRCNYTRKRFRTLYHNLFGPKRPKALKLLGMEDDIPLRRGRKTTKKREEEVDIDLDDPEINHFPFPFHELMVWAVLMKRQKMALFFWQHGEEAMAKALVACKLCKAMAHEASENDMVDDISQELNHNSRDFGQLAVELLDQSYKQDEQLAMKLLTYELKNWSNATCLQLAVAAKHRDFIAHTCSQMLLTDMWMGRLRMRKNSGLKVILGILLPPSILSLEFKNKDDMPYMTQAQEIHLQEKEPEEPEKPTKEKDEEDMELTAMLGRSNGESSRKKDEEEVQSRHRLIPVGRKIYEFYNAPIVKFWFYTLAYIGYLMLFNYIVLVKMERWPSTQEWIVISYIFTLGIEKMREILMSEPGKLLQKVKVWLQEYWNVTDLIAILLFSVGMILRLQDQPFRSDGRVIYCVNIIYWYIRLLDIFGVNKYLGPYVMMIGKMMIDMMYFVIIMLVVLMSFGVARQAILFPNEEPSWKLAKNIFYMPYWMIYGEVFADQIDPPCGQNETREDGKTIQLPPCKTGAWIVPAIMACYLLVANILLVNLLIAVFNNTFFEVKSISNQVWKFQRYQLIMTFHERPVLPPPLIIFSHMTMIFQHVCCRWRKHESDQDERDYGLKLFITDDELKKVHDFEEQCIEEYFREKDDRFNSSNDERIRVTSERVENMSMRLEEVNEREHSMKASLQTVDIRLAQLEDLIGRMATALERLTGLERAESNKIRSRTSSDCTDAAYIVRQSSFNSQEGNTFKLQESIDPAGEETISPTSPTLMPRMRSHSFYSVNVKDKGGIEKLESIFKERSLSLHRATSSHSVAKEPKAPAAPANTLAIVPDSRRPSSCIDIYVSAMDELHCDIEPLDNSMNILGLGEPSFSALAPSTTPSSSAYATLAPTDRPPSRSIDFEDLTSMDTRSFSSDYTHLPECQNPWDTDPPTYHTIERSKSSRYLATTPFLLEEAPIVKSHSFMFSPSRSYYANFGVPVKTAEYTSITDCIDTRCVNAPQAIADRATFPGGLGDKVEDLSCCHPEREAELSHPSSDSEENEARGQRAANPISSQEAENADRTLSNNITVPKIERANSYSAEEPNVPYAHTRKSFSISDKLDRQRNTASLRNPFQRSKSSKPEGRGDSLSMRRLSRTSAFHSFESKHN
# procedureText: TRPM3 ion channel driven Ca2+ uptake, Fluo-4 AM assay in overexpressing flip-in HEK293 cells
# conditionInfo: inhibition of Ca2+ influx stimulated with Pregnenolone sulfate (PS) 50 μM
# Description: Monitoring the TRPM3 Ion Channel Driven Ca^2+ Uptake. […] For mTRPM3, the intracellular Ca^2+ was measured with a Calcium responsive dye, Fluor-4 AM ester (Invitrogen). […] Channel inhibition was calculated compared to a non-PS stimulated control versus a condition stimulated with PS (50 μM) with vehicle. […]
Each entry below lists one item and its recorded IC50 value.

Completed entries (count: 2):
molecule: Cc1oc2ccc(OCC3CC3)cc2c1C1(N)CC1
IC50: > 20000 nM
--
molecule: COCCC(=O)NC1(c2c(C)oc3ccc(OCc4cccnc4C(F)(F)F)cc23)CC1
IC50: < 1000 nM

INPUT: Tell me the measured IC50 of Cc1oc2ccc(OCc3ccccc3)cc2c1-c1nccc(CC(F)(F)F)n1 , please.
OUTPUT: > 20000 nM

INPUT: IC50 for Cc1ncsc1COc1ccc2oc(C)c(-c3ncc(CO)[nH]3)c2c1 ?
OUTPUT: < 1000 nM

INPUT: Quick one: IC50 of Cc1oc2ccc(OCc3cccnc3C(F)(F)F)cc2c1C1(NCC(N)=O)CC1 ?
OUTPUT: < 1000 nM

INPUT: Name the recorded IC50 for Cc1oc2ccc(OCc3cccnc3C(F)(F)F)cc2c1C1(NC(C)C(N)=O)CC1 (stereo not drawn) .
OUTPUT: 1000 to 20000 nM

INPUT: Suppose we examine the molecule Cc1ncc(COc2ccc3oc(C)c(C4(N)CC4)c3c2)s1 ; what IC50 value has been reported?
OUTPUT: > 20000 nM

INPUT: Query: IC50; subject: Cc1oc2ccc(OCc3cccnc3C(F)(F)F)cc2c1C1(NS(=O)(=O)C2CC2)CC1
OUTPUT: < 1000 nM

INPUT: Item under review: Cc1ncsc1COc1ccc2oc(C)c(-c3ncc(CO)o3)c2c1 . Reported IC50?
OUTPUT: < 1000 nM
